Field: pIC50. Provide a value for each of the compounds that follow.
EXPERIMENT_SUMMARY: Inhibition of saccharomyces cerevisiae alpha-glucosidase using PNP-G as substrate incubated for 20 mins
Please note pIC50 is a logarithmic value: minus log10 of concentration in mol/L. Answer with that number alone.

Prompt: Requested field: pIC50. Item: "CC1(C)O[C@H]2Cc3c(O)cc(O)cc3O[C@@H]2c2cc(O)c(O)cc21"
Completion: 5.92

Prompt: Requested field: pIC50. Item: "CCCCC1(CCCC)O[C@H]2Cc3c(O)cc(O)cc3O[C@@H]2c2cc(O)c(O)cc21"
Completion: 5.68

Prompt: Requested field: pIC50. Item: "CCCCCCC1(CCCCCC)O[C@H]2Cc3c(O)cc(O)cc3O[C@@H]2c2cc(O)c(O)cc21"
Completion: 6.05
